All figures here come from ChEMBL document CHEMBL3714734.

- assayed-target: UniProt Q9GZN0
- Sequence (Q9GZN0 whole entry): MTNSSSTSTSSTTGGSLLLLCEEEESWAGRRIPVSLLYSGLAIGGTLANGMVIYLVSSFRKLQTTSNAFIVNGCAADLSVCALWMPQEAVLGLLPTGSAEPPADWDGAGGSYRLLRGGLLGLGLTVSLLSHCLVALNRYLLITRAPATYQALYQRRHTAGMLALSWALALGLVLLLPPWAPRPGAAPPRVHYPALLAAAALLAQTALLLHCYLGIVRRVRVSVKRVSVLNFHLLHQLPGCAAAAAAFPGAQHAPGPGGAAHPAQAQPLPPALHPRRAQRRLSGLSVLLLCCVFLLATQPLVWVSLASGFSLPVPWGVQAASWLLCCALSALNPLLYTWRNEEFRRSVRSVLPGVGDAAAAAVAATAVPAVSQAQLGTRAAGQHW
- assay-overview: Modulator activity at GPR88 (unknown origin) expressed in cell membranes incubated for 1 hr by liquid scintillation counting based [35S]GTPgammaS binding assay
- Type: functional
Recorded EC50, one value per entry.

Use these answered entries as a reference point.
| compound | reported |
| --- | --- |
| CC[C@H](C)COc1ccc([C@H](CN)NC(=O)[C@H]2C[C@@H]2c2cccs2)c(C)c1 | ≤ 130 nM |
| CCCC(C)COc1ccc([C@H](CN2CCN(C)CC2)NC(=O)[C@H]2C[C@@H]2c2cccs2)cc1 (stereo partly specified) | ≤ 130 nM |
| CC[C@H](C)COc1ccc([C@H](CN)NC(=O)[C@H]2C[C@@H]2c2cccs2)cc1 | ≤ 130 nM |
| CCc1ccc(-c2ccc([C@H](CO)NC(=O)[C@H]3C[C@@H]3c3cccs3)cc2)cc1 | ≤ 130 nM |
| CC[C@H](NC(=O)[C@H]1C[C@@H]1c1ccccc1)c1ccc(-c2ccc(OC)cc2)cc1 | ≤ 130 nM |

**Query** Report EC50 for `CCc1ccc(-c2ccc([C@H](CO)NC(=O)[C@H]3C[C@@H]3c3cccs3)c(OC)c2)cc1` please.
**Result** ≤ 130 nM
